These entries and their values trace back to PubChem BioAssay (NCI).

tested on: KM12 colon; test: NCI-60 one-dose screen, 48 h; details: 10 µM unless noted
Compounds without any hit were thinned out: in the full panel of roughly 83,000, 20% have a hit. Active and inactive are the calls of the source. How the source made its calls: active means growth percent below 10; inactive means the rest.
Tick one outcome: active, inactive

Sample answers from the record:
Molecule: Cc1ccc(C(=O)Cc2ccccc2)c(O)c1
Discrete label: inactive

Molecule: CC12CCC3C(=CCc4cc(O)ccc43)C1CCC2=O (stereo unspecified)
Discrete label: inactive

Molecule: O=C(CN1CCN(c2ccc(Cl)cc2)CC1)N1CCN(c2nnc(-c3ccccc3)c(-c3ccccc3)n2)CC1
Discrete label: inactive

Molecule: CCOC(=O)Nc1ccc2c3c(cccc13)-c1ccccc1-2
Discrete label: inactive

Molecule: Cc1sc2nc(N3CCCCC3)[nH]c(=O)c2c1C
Discrete label: inactive

Molecule: C[C@]12CCC(=O)C=C1CCC1C2[C@@H](O)C[C@@]2(C)C1CC[C@]2(O)C(=O)COC(=O)CCC(=O)O (stereo partly specified)
Discrete label: inactive

Query: Which outcome was entered for the molecule COc1cccc(/C=C2\Cc3ccccc3C2=O)c1 in this test?
Reply: inactive

Query: Which outcome was entered for the molecule COc1cccc(/C=N/Nc2nc3ccccc3s2)c1OC in this test?
Reply: inactive

Query: Which outcome was entered for the molecule [N-]=[N+]=NCc1ncc(-c2ccc(C(F)(F)F)cc2)c(NC2CCCCCC2)n1 in this test?
Reply: inactive

Query: Which outcome was entered for the molecule Cc1nn(-c2ccccc2)c2nc(N)c(C3=NCCO3)nc12 in this test?
Reply: inactive

Query: Which outcome was entered for the molecule CCc1nn2c(-c3ccc(Cl)cc3C)c(-c3cc(OC)c(OC)c(OC)c3)nc2s1 in this test?
Reply: inactive

Query: Which outcome was entered for the molecule C=C1CCC2C3(C)COC(c4ccccc4)OC3CCC2(C)C1C/C=C1/C(=O)OCC1OC(C)=O (stereo unspecified) in this test?
Reply: inactive

* * *

tested on: TK-10 renal; experiment: NCI-60 one-dose screen, 48 h; conditions: 10 µM unless noted
About 83,000 compounds went through this panel and 20% of them were active in at least one assay; those are over-represented in the sample as a whole. The source made the active and inactive calls. How the source made its calls: active means growth percent below 10; inactive means the rest.
Tick one outcome: 1 (active), -1 (inactive)

Compound: O=C1/C(=C/c2ccccc2Cl)CCc2ccccc21
Discrete label: -1

Compound: COc1ccc2nc(N/N=C(\C)c3ccccn3)cc(C)c2c1
Discrete label: -1

Compound: Cn1cc(NC(=O)Nc2cc(C(=O)O)n(C)c2)cc1C(=O)O
Discrete label: -1

Compound: NS(=O)(=O)c1ccc(-n2ncc3c(N/N=C/c4ccccc4)ncnc32)cc1
Discrete label: -1

Compound: CC(=O)N1N=C(c2ccc(C(F)(F)F)cc2)CC1c1ccc2c(c1)OCO2 (centres undefined)
Discrete label: -1

Compound: CCn1cnc(C[C@H](NC(=O)[C@H](CCCCNC(=O)Nc2cc(C(F)(F)F)cc(C(F)(F)F)c2)NC(=O)Nc2cc(C(F)(F)F)cc(C(F)(F)F)c2)C(=O)OC)c1
Discrete label: 1

Compound: COc1ccc(-c2nc3sc4c(c3c(=O)[nH]2)CCCCCC4)cc1
Discrete label: -1

Compound: CSc1nc(-c2ccc(O)cc2O)c2c(=O)[nH]c(Nc3ccc(S(=O)(=O)Nc4nc(C)cc(C)n4)cc3)nc2n1
Discrete label: -1

With those in mind, consider the next compound.
Query: Which outcome was entered for the compound O=C(/C=C/c1cccc(O)c1)c1cccc(-n2cc(-c3ccccc3)[nH]c2=O)c1 in this test?
Reply: -1

* * *

system: SF-295 CNS; assay: NCI-60 one-dose screen, 48 h; details: 10 µM unless noted
About 83,000 compounds went through this panel and 20% of them were active in at least one assay; those are over-represented in the sample as a whole. Active and inactive are the calls of the source. How the source made its calls: active means growth percent below 10; inactive means the rest.
Tick one outcome: 1 for active, -1 for inactive

Compound: CCCc1n(Cc2ccc3ccccc3c2)cc[n+]1Cc1ccc2ccccc2c1
Discrete label: 1

Query: Which outcome was entered for the compound CCCCCCCCCCN1CCC(N2CCCCC2)CC1 in this test?
Reply: 1

Query: Which outcome was entered for the compound CC(=O)Nc1c(Cl)cc2c(c1Cl)Cc1ccccc1-2 in this test?
Reply: -1

Query: Which outcome was entered for the compound O=C1Nc2ccc(C(=O)O)c(O)c2C1=O in this test?
Reply: -1

Query: Which outcome was entered for the compound COc1cc(C2=NN(C=O)C(c3cccc(Nc4ccnc5cc(Cl)ccc45)c3)C2)cc(OC)c1OC (stereo not given) in this test?
Reply: -1

Query: Which outcome was entered for the compound CC(=O)N1N=C(c2ccc3c(c2)OCO3)CC1c1c(C)nn(-c2ccccc2)c1N(C)Cc1ccccc1 (stereo not given) in this test?
Reply: -1

Query: Which outcome was entered for the compound OC(c1ccccc1)C(NCc1ccccc1)c1ccccc1 (stereo not given) in this test?
Reply: -1

Query: Which outcome was entered for the compound O=c1c2c(=NCCCN3CCCC3)cc3c(=O)n(CCCN4CCCC4)c(=O)c4c(NCCCN5CCCC5)cc(c(O)n1CCCN1CCCC1)c2c4-3 in this test?
Reply: 1

Query: Which outcome was entered for the compound CN(C)c1ccc(-n2nc3ccccc3n2)cc1 in this test?
Reply: -1

Query: Which outcome was entered for the compound O=C(O)CCNS(=O)(=O)c1ccc(-c2ccccc2)cc1 in this test?
Reply: -1

* * *

system: NCI/ADR-RES ovarian; assay: NCI-60 one-dose screen, 48 h; conditions: 10 µM unless noted
About 83,000 compounds went through this panel and 20% of them were active in at least one assay; those are over-represented in the sample as a whole. Active and inactive are the calls of the source. The calls were made as follows: active = growth percent below 10; inactive = the rest.
Tick one outcome: active, inactive

Compound: O=Nc1c2cccnc2n2nnc3ccc(Cl)cc3c12
Discrete label: inactive

Query: Which outcome was entered for the compound CSc1nc(Nc2ccc(S(=O)(=O)Nc3ccon3)cc2)c(C#N)c(-c2ccc(Cl)cc2)n1 in this test?
Reply: inactive

Query: Which outcome was entered for the compound CC(C)N(Cc1ccccc1)c1c(S)ssc1=S in this test?
Reply: inactive

Query: Which outcome was entered for the compound Nc1ccc(N=Nc2ccccc2)cc1[N+](=O)[O-] in this test?
Reply: inactive

Query: Which outcome was entered for the compound Cc1cc(C)c2c(N)c3cccc(C)c3nc2n1 in this test?
Reply: active

Query: Which outcome was entered for the compound O=C1CSC(c2ccccc2O)N1c1nnc(Cn2ccnc2)o1 (stereo not drawn) in this test?
Reply: inactive

Query: Which outcome was entered for the compound CCSc1nc(-c2ccc(F)cc2)c(C#N)c(=O)[nH]1 in this test?
Reply: inactive

Query: Which outcome was entered for the compound Nc1ccc2c(c1Br)Cc1ccccc1-2 in this test?
Reply: inactive

* * *

Test system: NCI-H226 lung
Test: NCI-60 one-dose screen, 48 h
Details: 10 µM unless noted
Procedure: Growth inhibition of the NCI-H226 human Non-Small Cell Lung tumor cell line is measured as a screen for anti-cancer activity. Cells are grown in 96 well plates and exposed to the test compound for 48 hours. Compounds are tested at a single concentration, which is 10^-5 M for most compounds. The reported endpoint is percent growth (GI% or GIPRCNT), where numbers from 0 - 100% represent growth inhibition, and numbers from -100% - 0 represent cell death. […]
About 83,000 compounds went through this panel and 20% of them were active in at least one assay; those are over-represented in the sample as a whole. The source made the active and inactive calls. How the source made its calls: active means growth percent below 10; inactive means the rest.
Tick one outcome: yes (active), no (inactive)

Sample answers from the record:
Compound: Cc1cc(Cl)ccc1Nc1nc(C(F)(F)F)ccc1C(=O)N/N=C/c1ccc(Cl)cc1
Discrete label: yes
//
Compound: COc1cnc2c(c1)C(=O)c1c-2n(CCCN2CCCC2)c(=O)c2cc(F)ccc12
Discrete label: yes
//
Compound: BrC1CC(Br)c2c1c1c(c3c2C(Br)CC3Br)C(Br)CC1Br (stereo not drawn)
Discrete label: no
//
Compound: CCOc1cc(/C=C/C(=O)C(C(=O)/C=C/c2ccc(OC(=O)CNc3nnc(C)s3)c(OCC)c2)C(=O)CNc2nnc(C)s2)ccc1OC(=O)CNc1nnc(C)s1
Discrete label: yes
//
Compound: CCN1CC2=C(Nc3nc(SC)[nH]c(=O)c3C2c2cc(OC)c(OC)c(OC)c2)/C(=C/c2cc(OC)c(OC)c(OC)c2)C1 (stereo not drawn)
Discrete label: no

Query: Which outcome was entered for the compound COc1cc(C(=O)/C=C/c2cccc(Nc3ccnc4cc(Cl)ccc34)c2)cc(OC)c1OC in this test?
Reply: yes

Query: Which outcome was entered for the compound COc1cc(C2CC(c3ccc(C)cc3)=NN2C=O)ccc1OCCN(C)C (stereo not drawn) in this test?
Reply: no

Query: Which outcome was entered for the compound NC(=O)NS(=O)(=O)c1ccc(N2N=C(C(F)(F)F)CC2c2cc(C(F)(F)F)cc(C(F)(F)F)c2)cc1 (stereo not drawn) in this test?
Reply: no

* * *

System: HOP-92 NSCLC
Assay: NCI-60 one-dose screen, 48 h
Details: 10 µM unless noted
Method: Growth inhibition of the HOP-92 human Non-Small Cell Lung tumor cell line is measured as a screen for anti-cancer activity. Cells are grown in 96 well plates and exposed to the test compound for 48 hours. Compounds are tested at a single concentration, which is 10^-5 M for most compounds. The reported endpoint is percent growth (GI% or GIPRCNT), where numbers from 0 - 100% represent growth inhibition, and numbers from -100% - 0 represent cell death. […]
This is part of a sample that, as a whole, favours compounds with a hit. Of some 83,000 tested, about 20% had one in any assay. Calls of active or inactive are those of the source. Rule for the calls: active = growth percent below 10; inactive = the rest.
Tick one outcome: t for active, f for inactive

Sample answers from the record:
Molecule: COc1ccc(CC(=O)Nc2nn3c(-c4cc(C(F)(F)F)cc(C(F)(F)F)c4)nnc3s2)cc1
Discrete label: f
//
Molecule: COc1cc(/C=C/c2cc(/C=C/c3ccc(O)c(OC)c3)n(C(=O)c3ccc(Cl)cc3)n2)ccc1O
Discrete label: t
//
Molecule: CCCCCCC(CC#N)(CCC)CCCC (stereo not given)
Discrete label: f

Query: Which outcome was entered for the molecule Nc1ccc(N=Nc2ccccc2)cc1[N+](=O)[O-] in this test?
Reply: f

Query: Which outcome was entered for the molecule c1ccc(-c2oc(-c3ccccc3)c3ccccc23)cc1 in this test?
Reply: f

Query: Which outcome was entered for the molecule O=C1C=CC(=O)N1c1ccccc1N1C(=O)C=CC1=O in this test?
Reply: f

Query: Which outcome was entered for the molecule CC1C(C)N(C(=O)CCl)c2ccccc2N1C(=O)CCl (stereo not given) in this test?
Reply: t

Query: Which outcome was entered for the molecule Clc1ccc(C2c3ccccc3-c3nccn32)c(Cl)c1 (stereo not given) in this test?
Reply: t
